Each entry below carries its reported apparent KD of MS2 coat protein.
- System: MS2 coat protein
- Assay overview: apparent KD of MS2 coat protein; higher = weaker reporter binding
- Measurement parameters: Eterna round: R107; input ligand: none
Value type: apparent KD of MS2 coat protein

{"columns": ["Sequence data", "Study target", "Result value"],
 "data": [
  ["AAAAUCCUACCUGAGGAUCACCCGGGUGAAGGAGCGCCCGAAAGGGCAGGUAGGUCGCACCUGAGGAUCACCCUGGUAACCUAAA [ArgEX 12 #DoubleMS2 #OpenEnded #AlternativeMS2]", "MS2 coat protein", "0.179 µM"],
  ["AUGCUUAUCAGAAGGAGCGUCAUUAACAUGAGGAUCACCCAUGUAACAUUGAAUUCGAUGAGACAGGUAGGUCGCUGAAUAGUAA [SS-ArgB27]", "MS2 coat protein", "0.0451 µM"],
  ["UACAUGAGGAUCACCCAUGUAUUGCCGGUACGAGGACCGGUACGGCCGCCACUCGGGACAUGAGGAUCACCCAUGUGCUGCUAUU [Same State Trypophan A GF 23]", "MS2 coat protein", "0.0444 µM"],
  ["GAGCGCGUGGACUGGCGUGCUCCGCUCCGUCGAGGACCGGUACGGCCGCCACUCGACAUGAGGAUCACCCAUGUGCGCGCUCGCU [#1 Exclusion - Tryptophan A Attempt #23 (HarryS)]", "MS2 coat protein", "0.027 µM"]
]}

###

- System: MS2 coat protein
- Assay overview: apparent KD of MS2 coat protein, switch ON state; designed switch direction (-1 OFF switch, 1 ON switch): -1; higher = weaker reporter binding
- Measurement parameters: FMN input: 0 or 200 uM; Eterna round: R93 (includes R88 designs)
Value type: apparent KD of MS2 coat protein (nM)

{"columns": ["Sequence data", "Result value"],
 "data": [
  ["AAAAUACAUGAGGAUCACCCAUGUGAGGAUAUGCAAAACCCAUAUAAAAAGGGAAAAAGCAGAAGGCACAAAAA [wbt round 1 mod 15]", 33],
  ["AACAUGUCAGGAUAUGUAGUAAAAAGUGAUCCUCAUAAACUACAGAAGGGACAUGAGGAUCACCCAUGUAAAAA [Ex4: 930]", 27.9],
  ["AAAAAGUCAGGAUAUGCGAAGGCGUCUGAUAGACGAGGCUAGCAGAAGGGACAUGAGGAUCACCCAUGUGAAAA [Mat - Mod of Nando 64% 1]", 57.9],
  ["GCUUGGCAAGGAUAUACAUGAGGAUCACCCAUGUGAGAGAAAAAAGUGAGAAAGAAAAGUAGAAGGUGCUGAGG [salish99-ex3-109]", 42.6],
  ["CUCAAGUGAGGAUAUUAAAGAAAAGAAGAGAAAGAAAAGAAUAAGAAGGCACAUGAGGAUCACCCAUGUAAGAA [EteRNA is fun!]", 26.4],
  ["AACAGUACAGGAUAUACAUGAGGAUCACCCAUGUGAAAAUUAAGUGGGAAACCACAGUGUAGAAGGGUACUGAA [Mat - Exclusion 3 - Eli mod - D55]", 120],
  ["AUAGGUCAAGGAUAUACAUGAGGAUCACCCAUGUAAAUAACUCCAUAAAACUCCACAAGUAGAAGGUGAAAUAA [JR_Exc003_Sub202]", 17.9],
  ["AAGAAGGUAGGAUAUACAUGAGGAUCACCCAUGUAAAAGAAAGAGGGAAAAGAGAAAAGUAGAAGGACCAAGAA [Ankhmakis]", 34.3]
]}
